Tested on: CAS-1 (Glioblastoma)
Experiment: combination Emax (second highest fraction inhibited in the dose matrix, 72 h); higher = more inhibition; extreme values may be limits of the assay
combination Emax by entry:
Please respond with just the number, no unit label.

Record excerpt, results attached:
| compound | test-target | combination Emax |
| --- | --- | --- |
| CC1(C)CCC(CN2CCN(c3ccc(C(=O)NS(=O)(=O)c4ccc(NCC5CCOCC5)c([N+](=O)[O-])c4)c(Oc4cnc5[nH]ccc5c4)c3)CC2)=C(c2ccc(Cl)cc2)C1 [Venetoclax] + CCN(CCO)CCCOc1ccc2c(Nc3cc(CC(=O)Nc4cccc(F)c4)[nH]n3)ncnc2c1 [AZD2811] (first compound max 1 µM, 7x7, partner max 1 µM) | CAS-1 (Glioblastoma) | 0.271 |
| COc1cccc(OCCCN)c1-c1cc(Nc2cnc(C#N)cn2)n[nH]1 [Prexasertib] + CN(C)CCCOc1ccc(-c2ccc3ncc4c(c3c2)n(C2CCOCC2)c(=O)n4C)cn1 [AZD0156] (first compound max 1 µM, 7x7, partner max 1 µM) | CAS-1 (Glioblastoma) | 0.674 |
| CN(C)CCCOc1ccc(-c2ccc3ncc4c(c3c2)n(C2CCOCC2)c(=O)n4C)cn1 [AZD0156] + CCN(CCO)CCCOc1ccc2c(Nc3cc(CC(=O)Nc4cccc(F)c4)[nH]n3)ncnc2c1 [AZD2811] (first compound max 1 µM, 7x7, partner max 1 µM) | CAS-1 (Glioblastoma) | 0.263 |

From here, focus on the item given below.
Recorded combination Emax for Cn1cnc2c(F)c(Nc3ccc(Br)cc3Cl)c(C(=O)NOCCO)cc21 [Selumetinib] + CC(C)n1c(=O)n(C)c2cnc3cc(F)c(-c4ccc(OCCCN5CCCCC5)nc4)cc3c21 [AZD1390] (first compound max 10 µM, 7x7, partner max 0.3 µM) with CAS-1 (Glioblastoma), please? 0.241

----------
combination Emax by entry:
Test system: 8-MG-BA (Glioblastoma)
Assay: combination Emax (second highest fraction inhibited in the dose matrix, 72 h); higher = more inhibition; extreme values may be limits of the assay

| compound | combination Emax |
| --- | --- |
| CC1(C)CCC(CN2CCN(c3ccc(C(=O)NS(=O)(=O)c4ccc(NCC5CCOCC5)c([N+](=O)[O-])c4)c(Oc4cnc5[nH]ccc5c4)c3)CC2)=C(c2ccc(Cl)cc2)C1 [Venetoclax] + COc1cc(Nc2ncc3c(n2)-c2ccc(Cl)cc2C(c2c(F)cccc2OC)=NC3)ccc1C(=O)O [Alisertib] (first compound max 1 µM, 7x7, partner max 10 µM) | 0.447 |
| CN(C)CCCOc1ccc(-c2ccc3ncc4c(c3c2)n(C2CCOCC2)c(=O)n4C)cn1 [AZD0156] + O=C(c1cc(Cc2n[nH]c(=O)c3ccccc23)ccc1F)N1CCN(C(=O)C2CC2)CC1 [Olaparib] (first compound max 3 µM, partner max 3 µM) | 0.4 |

From here, focus on the item given below.
Given the entry COc1cc2c(cc1OCCCCCOc1cc3c(cc1OC)C(=O)N1C=C(C)C[C@H]1C=N3)N=C[C@@H]1CC(C)=CN1C2=O [SG3199] + O=C(c1cc(Cc2n[nH]c(=O)c3ccccc23)ccc1F)N1CCN(C(=O)C2CC2)CC1 [Olaparib] (first compound max 0.001 µM, 7x7, partner max 10 µM) , report its measured combination Emax. 0.267

----------
combination Emax by entry:
Test system: NCI-H1581 (Non-Small Cell Lung Carcinoma)
Test: combination Emax (second highest fraction inhibited in the dose matrix, 72 h); higher = more inhibition; extreme values may be limits of the assay
Please respond with just the number, no unit label.

Record excerpt, results attached:
| compound | measure-name | reported-result |
| --- | --- | --- |
| CN(C)CCCOc1ccc(-c2ccc3ncc4c(c3c2)n(C2CCOCC2)c(=O)n4C)cn1 [AZD0156] + O=C(c1cc(Cc2n[nH]c(=O)c3ccccc23)ccc1F)N1CCN(C(=O)C2CC2)CC1 [Olaparib] (first compound max 3 µM, partner max 3 µM) | combination Emax | 0.412 |
| NC1(C(=O)N[C@@H](CCO)c2ccc(Cl)cc2)CCN(c2ncnc3[nH]ccc23)CC1 [Capivasertib] + CCN(CCO)CCCOc1ccc2c(Nc3cc(CC(=O)Nc4cccc(F)c4)[nH]n3)ncnc2c1 [AZD2811] (first compound max 10 µM, 7x7, partner max 1 µM) | combination Emax | 0.469 |
| COc1nnc2ccc(N3CCC(c4ccc(OCCN5CCN(C)C(=O)[C@H]5C)cc4)CC3)nn12 [AZD5153] + CCN(CCO)CCCOc1ccc2c(Nc3cc(CC(=O)Nc4cccc(F)c4)[nH]n3)ncnc2c1 [AZD2811] (first compound max 1 µM, 7x7, partner max 1 µM) | combination Emax | 0.437 |

Given the entry Cc1c2c(nn1C)CSCc1cc(n(C)n1)CSc1cc(c3ccccc3c1)OCCCc1c(C(=O)O)n(C)c3c-2c(Cl)ccc13 [AZD5991] + CC(=O)O[C@H]1C(=O)[C@@]2(C)[C@H]([C@H](OC(=O)c3ccccc3)[C@]3(O)C[C@H](OC(=O)[C@H](O)[C@@H](NC(=O)c4ccccc4)c4ccccc4)C(C)=C1C3(C)C)[C@]1(OC(C)=O)CO[C@@H]1C[C@@H]2O [Paclitaxel] (first compound max 1 µM, 7x7, partner max 3 µM) , report its measured combination Emax. 1

Given the entry CC1(C)CCC(CN2CCN(c3ccc(C(=O)NS(=O)(=O)c4ccc(NCC5CCOCC5)c([N+](=O)[O-])c4)c(Oc4cnc5[nH]ccc5c4)c3)CC2)=C(c2ccc(Cl)cc2)C1 [Venetoclax] + CS(=O)(=O)CCNCc1ccc(-c2ccc3ncnc(Nc4ccc(OCc5cccc(F)c5)c(Cl)c4)c3c2)o1 [Lapatinib] (first compound max 1 µM, 7x7, partner max 10 µM) , report its measured combination Emax. 0.242
